- Study System: human CXCR3 (N-delta 4) (Homo sapiens)
- Construct: CD8 leader (N); Flag; expressed in transfected cells; membranes prepared
- Method Description: Human CXCR3 (N-delta 4) Scintillation Proximity Assay (SPA), [125I] IP-10 binding to Ba/F3-hCXCR3 membranes
- Assay Context: IC50 rating, Table 1; read-out: IC50
pIC50: −log10 of the molar value.
List of pIC50 values.

Compound	Assay Value
CC[C@H]1CN(c2nc(N)c(C(=O)NCCO)nc2Cl)CCN1C1CCN(Cc2ccc(OC(F)(F)F)cc2OCC(N)=O)CC1	> 7.60

Now for the compound whose pIC50 we want.
Could you share which pIC50 value was measured for CC[C@H]1CN(c2nc(N)c(C(N)=O)nc2Cl)CCN1C1CCN(Cc2ccc(F)c(F)c2N2CCC[C@H]2C(C)(C)O)CC1 ?
< 7.00

---

- Study System: human CXCR3 (N-delta 4) (Homo sapiens)
- Construct: CD8 leader (N); Flag; expressed in transfected cells; membranes prepared
- Method Description: Human CXCR3 (N-delta 4) Scintillation Proximity Assay (SPA), [125I] IP-10 binding to Ba/F3-hCXCR3 membranes
- Assay Context: IC50 rating, Table 1; read-out: IC50
List of IC50 values.

Some entries whose results are on file:
CC[C@H]1CN(c2ncc(C(=O)NC)nc2C)CCN1C1CCN(C(=O)c2ccc(Cl)cc2)CC1 < 25 nM
CC[C@H]1CN(c2nc(N)c(C(N)=O)nc2Cl)CCN1C1CCN(Cc2ccc(Cl)cc2-c2nnn[nH]2)CC1 25 to 100 nM
CC[C@H]1CN(c2nc(N)c(C(=O)NCCO)nc2Cl)CCN1C1CCN(Cc2ccc(Cl)cc2OCCNS(C)(=O)=O)CC1 < 25 nM
CC[C@H]1CN(c2nc(N)c(C(=O)NCCO)nc2Cl)CCN1C1CCN(Cc2ccc(OC(F)(F)F)cc2OCCO)CC1 < 25 nM

Could you share which IC50 value was measured for CC[C@H]1CN(c2nc(N)c(C(N)=O)nc2Cl)CCN1C1CCN(Cc2ccc(Cl)cc2)CC1 ?
< 25 nM

Could you share which IC50 value was measured for CC[C@H]1CN(c2nc(N)c(C(=O)N[C@@H]3CCNC3=O)nc2Cl)CCN1C1CCN(Cc2ccc(C#N)cc2)CC1 ?
> 100 nM

Could you share which IC50 value was measured for CC[C@H]1CN(c2nc(N)c(C(=O)NCCO)nc2Cl)CCN1C1CCN(Cc2ccc(C#N)cc2)CC1 ?
< 25 nM

---

- Study System: human CXCR3 (N-delta 4) (Homo sapiens)
- Construct: CD8 leader (N); Flag; expressed in transfected cells; membranes prepared
- Sequence (P49682 5-368 limits assumed): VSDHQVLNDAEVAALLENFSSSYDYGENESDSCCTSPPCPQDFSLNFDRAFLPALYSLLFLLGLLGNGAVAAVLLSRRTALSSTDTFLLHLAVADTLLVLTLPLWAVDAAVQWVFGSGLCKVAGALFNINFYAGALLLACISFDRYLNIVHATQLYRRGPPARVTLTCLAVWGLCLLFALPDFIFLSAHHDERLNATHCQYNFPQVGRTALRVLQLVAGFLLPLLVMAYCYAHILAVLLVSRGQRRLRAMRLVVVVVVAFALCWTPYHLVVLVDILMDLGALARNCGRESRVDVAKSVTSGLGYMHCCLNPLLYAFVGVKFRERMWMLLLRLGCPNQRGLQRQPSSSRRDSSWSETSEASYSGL
- Method Description: Human CXCR3 (N-delta 4) Scintillation Proximity Assay (SPA), [125I] IP-10 binding to Ba/F3-hCXCR3 membranes
- Assay Context: IC50 rating, Table 1; read-out: IC50
pIC50: −log10 of the molar value.
List of pIC50 values.

Some entries whose results are on file:
Compound	Study System	Assay Value
CC[C@H]1CN(c2nc(N)c(C(=O)NCCO)nc2Cl)CCN1C1CCN(Cc2ccc(C#N)cc2OCCOC)CC1 [compound 163]	human CXCR3 (N-delta 4) (Homo sapiens)	> 7.60
CC[C@H]1CN(c2nc(N)c(C(=O)OC)nc2Cl)CCN1C1CCN(Cc2ccc(Cl)cc2CCNS(C)(=O)=O)CC1 [compound 303]	human CXCR3 (N-delta 4) (Homo sapiens)	< 7.00
CC[C@H]1CN(c2ncc(C(N)=O)nc2NC)CCN1C1CCN(C(=O)c2ccc(Cl)cc2)CC1 [compound 383]	human CXCR3 (N-delta 4) (Homo sapiens)	< 7.00
CC[C@H]1CN(c2nc(N)c(C(=O)NCCO)nc2Cl)CCN1C1CCN(Cc2ccc(Cl)c(F)c2O)CC1 [compound 155]	human CXCR3 (N-delta 4) (Homo sapiens)	> 7.60
CC[C@H]1CN(c2nc(N)c(C(=O)OC)nc2Cl)CCN1C1CCN(Cc2ccc(Cl)cc2)CC1 [compound 67]	human CXCR3 (N-delta 4) (Homo sapiens)	> 7.60
CC[C@H]1CN(c2nc(N)c(C(=O)NCCNS(N)(=O)=O)nc2Cl)CCN1C1CCN(Cc2ccc(Cl)cc2C(=N)N)CC1 [compound 258]	human CXCR3 (N-delta 4) (Homo sapiens)	> 7.60

Now for the compound whose pIC50 we want.
Could you share which pIC50 value was measured for CC[C@H]1CN(c2nc(N)c(C(=O)NC[C@H](O)CO)nc2Cl)CCN1C1CCN(C(=O)c2ccc(Cl)cc2)CC1 [compound 359] ?
< 7.00

---

- Study System: human CXCR3 (N-delta 4) (Homo sapiens, UniProt P49682)
- Construct: CD8 leader (N); Flag; expressed in transfected cells; membranes prepared
- Sequence (P49682 5-368 limits assumed): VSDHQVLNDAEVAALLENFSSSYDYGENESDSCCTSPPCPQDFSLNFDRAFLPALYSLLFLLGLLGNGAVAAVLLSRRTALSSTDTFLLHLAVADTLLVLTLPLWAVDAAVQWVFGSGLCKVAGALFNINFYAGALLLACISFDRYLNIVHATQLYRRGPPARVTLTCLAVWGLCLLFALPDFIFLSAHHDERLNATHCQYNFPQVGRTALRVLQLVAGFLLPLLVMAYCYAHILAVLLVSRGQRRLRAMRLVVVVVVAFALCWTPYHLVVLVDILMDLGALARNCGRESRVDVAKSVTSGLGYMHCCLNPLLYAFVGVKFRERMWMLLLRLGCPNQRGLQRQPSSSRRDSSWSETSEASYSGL
- Method Description: Human CXCR3 (N-delta 4) Scintillation Proximity Assay (SPA), [125I] IP-10 binding to Ba/F3-hCXCR3 membranes
- Assay Context: IC50 rating, Table 1; read-out: IC50
List of IC50 values.

Some entries whose results are on file:
CC[C@H]1CN(c2nc(N)c(C(=O)NCCO)nc2Cl)CCN1C1CCN(Cc2ccc(F)c(F)c2N2CC[C@H](O)C2)CC1 < 25 nM
CC[C@H]1CN(c2nc(N)c(C(N)=O)nc2Cl)CCN1C1CCN([C@@H](CO)c2ccc(Cl)cc2)CC1 < 25 nM
C[C@H]1CN(c2nc(N)c(C(N)=O)nc2Cl)CCN1C1CCN(Cc2ccc(Cl)cc2)CC1 25 to 100 nM
CC[C@H]1CN(c2nc(N)c(C(=O)NCCO)nc2Cl)CCN1C1CCN(Cc2ccc(Cl)cc2F)CC1 < 25 nM
CC[C@H]1CN(c2nc(N)c(C(=O)OC)nc2Cl)CCN1C1CCN(Cc2ccc(C#N)cc2OCCOC)CC1 > 100 nM

Could you share which IC50 value was measured for CCNC(=O)c1nc(Cl)c(N2CCN(C3CCN(C(C)(C)c4ccc(Cl)cc4)CC3)[C@@H](CC)C2)nc1N ?
25 to 100 nM

Could you share which IC50 value was measured for CC[C@H]1CN(c2nc(N)c(C(=O)NC3CC3)nc2Cl)CCN1C1CCN(Cc2ccc(Cl)cc2C(N)=O)CC1 ?
< 25 nM

---

List of pIC50 values.
- Study System: human CXCR3 (N-delta 4) (Homo sapiens, UniProt P49682)
- Construct: CD8 leader (N); Flag; expressed in transfected cells; membranes prepared
- Method Description: Human CXCR3 (N-delta 4) Scintillation Proximity Assay (SPA), [125I] IP-10 binding to Ba/F3-hCXCR3 membranes
- Assay Context: IC50 rating, Table 1; read-out: IC50
pIC50: −log10 of the molar value.

CC[C@H]1CN(c2nc(N)c(C(=O)NCc3cc(O)no3)nc2Cl)CCN1C1CCN(Cc2ccc(Cl)cc2)CC1 < 7.00
CC[C@H]1CN(c2nc(N)c(C(=O)NCCO)nc2Cl)CCN1C1CCN([C@@H](CO)c2ccc(F)c(F)c2)CC1 > 7.60
CCc1nc(C(N)=O)cnc1N1CCN(C2CCN(C(=O)c3ccc(Cl)cc3)CC2)[C@@H](CC)C1 7.00 to 7.60
CC[C@H]1CN(c2ncc(C(N)=O)nc2C)CCN1C1CCN(C(=O)c2ccc(F)c(F)c2)CC1 7.00 to 7.60
CC[C@H]1CN(c2nc(N)c(C(=O)NCCNS(N)(=O)=O)nc2Cl)CCN1C1CCN(Cc2ccc(Cl)cc2C(=N)NC)CC1 > 7.60

Field: pIC50 (human CXCR3 (N-delta 4) (Homo sapiens, UniProt P49682)). Entry: CC[C@H]1CN(c2nc(N)c(C(=O)NC[C@@H](C)O)nc2Cl)CCN1C1CCN(Cc2ccc(Cl)cc2CCNS(C)(=O)=O)CC1
> 7.60

Field: pIC50 (human CXCR3 (N-delta 4) (Homo sapiens, UniProt P49682)). Entry: CC[C@H]1CN(c2nc(N)c(C(=O)NCCO)nc2C)[C@H](C)CN1C1CCN(C(=O)c2ccc(Cl)cc2)CC1
> 7.60
